Molecular target: T1, EsCas13d, nuclease-dead (Eubacterium siraeum, UniProt B0MS50, R295A;H300A;R849A;H854A)
T1 sequence: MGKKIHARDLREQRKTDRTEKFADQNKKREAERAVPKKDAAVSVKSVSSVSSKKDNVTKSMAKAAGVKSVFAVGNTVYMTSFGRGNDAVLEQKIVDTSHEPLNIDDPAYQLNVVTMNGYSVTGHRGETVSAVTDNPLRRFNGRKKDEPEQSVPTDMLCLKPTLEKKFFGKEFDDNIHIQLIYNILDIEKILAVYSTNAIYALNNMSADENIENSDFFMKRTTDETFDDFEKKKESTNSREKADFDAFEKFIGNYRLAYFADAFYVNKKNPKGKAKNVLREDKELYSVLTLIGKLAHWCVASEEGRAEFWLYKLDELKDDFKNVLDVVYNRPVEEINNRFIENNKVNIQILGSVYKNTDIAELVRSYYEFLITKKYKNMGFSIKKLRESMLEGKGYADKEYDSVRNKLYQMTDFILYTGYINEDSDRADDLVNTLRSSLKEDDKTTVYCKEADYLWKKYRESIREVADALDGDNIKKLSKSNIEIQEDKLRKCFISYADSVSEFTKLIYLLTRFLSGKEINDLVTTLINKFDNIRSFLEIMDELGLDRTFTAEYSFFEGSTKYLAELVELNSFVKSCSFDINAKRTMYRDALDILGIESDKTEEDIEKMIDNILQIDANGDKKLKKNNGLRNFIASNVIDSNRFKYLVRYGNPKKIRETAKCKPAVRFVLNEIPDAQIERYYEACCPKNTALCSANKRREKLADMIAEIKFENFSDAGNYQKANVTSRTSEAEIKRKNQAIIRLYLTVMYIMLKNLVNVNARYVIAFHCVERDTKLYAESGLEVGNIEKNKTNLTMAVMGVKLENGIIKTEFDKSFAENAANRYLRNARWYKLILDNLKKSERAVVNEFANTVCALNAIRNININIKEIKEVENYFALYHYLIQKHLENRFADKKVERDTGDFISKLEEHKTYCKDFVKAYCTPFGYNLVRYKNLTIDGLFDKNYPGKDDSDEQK
Assay: crRNA (strand 1, pre-loaded); Mg2+; 40 mM Tris-HCl pH 7.5, 150 mM NaCl, 6 mM MgCl2, 1 mM DTT, 0.1% Tween-20, 0.2 mg/ml BSA; 25 C; 10 min per concentration, then washed
Details: tags: His6-TwinStrep-SUMO cleaved; N-terminal SNAP kept (SNAP-Surface 488); label: 3' end held by stalled T7 RNA polymerase
Measured endpoint: Kd (nM)
Express it in nM; write the number only.

Exercise: What value of Kd has been recorded for this entry: target 2 MT 5'PFS GCG 3'PFS AAG (mixed) RNA 1: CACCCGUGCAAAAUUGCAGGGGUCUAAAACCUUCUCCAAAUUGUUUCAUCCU RNA 2: GGGAAUGGAUCCACAUCUACGAAUUCGCGAGGAUGAAACAAUUUGGAGAAGAAGAGAUCGGAAGAGCACACGU
Solution: 10.2

Exercise: Quick one: Kd of target 3 U2C,G14U (mixed) RNA 1: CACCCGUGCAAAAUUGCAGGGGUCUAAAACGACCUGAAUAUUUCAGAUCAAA RNA 2: GGGAAUGGAUCCACAUCUACGAAUUCGUUUUUGAUCUUAAAUAUUCAGGCCUGCAGAUCGGAAGAGCACACGU ?
Solution: 82

Exercise: Which Kd value belongs to target 1 insU 3' of 12,insG 3' of 6 (mixed) RNA 1: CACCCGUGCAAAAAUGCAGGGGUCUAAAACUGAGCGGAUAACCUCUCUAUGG RNA 2: GGGAAUGGAUCCACAUCUACGAAUUCGUACCAUAGAGAGGUUUAUCCGGCUCACCGAGAUCGGAAGAGCACACGU ?
Solution: 6.24

Exercise: Entry target 1 del3,del8 (mixed) RNA 1: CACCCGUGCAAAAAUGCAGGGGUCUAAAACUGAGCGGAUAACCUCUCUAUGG RNA 2: GGGAAUGGAUCCACAUCUACGAAUUCGUACCAUAGAGAGGUUACCGCCACCGAGAUCGGAAGAGCACACGU : reported Kd = ?
Solution: 7.05

Exercise: Field request: Kd | item: target 3 C6G,U8A (mixed) RNA 1: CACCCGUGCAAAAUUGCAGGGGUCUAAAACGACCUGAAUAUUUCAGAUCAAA RNA 2: GGGAAUGGAUCCACAUCUACGAAUUCGUUUUUGAUCUGAAAUAAUGAGGUCUGCAGAUCGGAAGAGCACACGU
Solution: 81.5

Exercise: Any idea what Kd was measured for target 1 G12A,G15U (mixed) RNA 1: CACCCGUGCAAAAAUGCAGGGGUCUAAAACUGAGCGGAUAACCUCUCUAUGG RNA 2: GGGAAUGGAUCCACAUCUACGAAUUCGUACCAUAGAUAGAUUAUCCGCUCACCGAGAUCGGAAGAGCACACGU ?
Solution: 18.7

Exercise: Using the record for target 1 C6A,U19A (mixed) RNA 1: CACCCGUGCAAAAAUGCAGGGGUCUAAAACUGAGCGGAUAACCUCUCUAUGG RNA 2: GGGAAUGGAUCCACAUCUACGAAUUCGUACCAAAGAGAGGUUAUCAGCUCACCGAGAUCGGAAGAGCACACGU , report its Kd.
Solution: 29.8

Exercise: Consider the binder target 2 MT 5'PFS GGA 3'PFS CUC (mixed) RNA 1: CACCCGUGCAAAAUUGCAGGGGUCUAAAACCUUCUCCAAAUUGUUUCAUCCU RNA 2: GGGAAUGGAUCCACAUCUACGAAUUCGGAAGGAUGAAACAAUUUGGAGAAGCUCAGAUCGGAAGAGCACACGU and give its measured Kd.
Solution: 13.4
